// provenance: patent US20210380675A1

Target: T1, cynomolgus IL-36γ, truncated (cynomolgus macaque (Macaca fascicularis), UniProt Q9NZH8 18-167 (human entry), limits assumed)
T1 construct: Untagged after removal of the His-SUMO tag; also called cynomolgus IL-36 gamma; cyIL-36gamma
T1 chain: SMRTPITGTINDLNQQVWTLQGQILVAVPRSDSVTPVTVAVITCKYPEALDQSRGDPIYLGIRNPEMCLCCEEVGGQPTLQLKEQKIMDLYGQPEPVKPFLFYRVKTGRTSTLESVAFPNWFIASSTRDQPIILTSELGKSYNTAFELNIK
Assay: SPR, Biacore, 1:1 Langmuir fit; heads of c3 and c4 printed swapped
Procedure: The humanized antibodies obtained in Example 6 were tested for their binding to recombinant human or cynomolgus macaque IL36a and IL-36γ in Biacore assays. The association time was set to 60 seconds, and the final dissociation time was set to 600 seconds. Equilibrium dissociation constant KD (kd/ka) of exemplary antibodies was determined using a 1:1 Langmuir fit model (see Tables 17-18 below).
# reported kon; entries follow
State just the number; it will be interpreted in M⁻¹ s⁻¹.

{"binder": "144L249B LV9 HV10b (antibody, V domains shown, Humanized) VH: QVQLVQSGAEVKKPGASVKVSCKASGFNIKDTYIYWVRQAPGQGLEWIGRIDPAIGTTRYDPKFQGKATLTTDTSTSTAYLELSSLRSEDTAVYYCARYDYSGSSFYFDYWGQGTLVTVSS VL: QAVVTQEPSLTVSPGGTVTLTCRSSTGAVTTSNYANWVQEKPGQLFTGLIGGTNDRAPGVPARFSGSLLGGKAALTLSGAQPEDEADYFCALWYSNHLVFGGGTKLTVL", "unit.info": "M⁻¹ s⁻¹", "kon": 855000}
{"binder": "144D464A LV11re HV10b (antibody, V domains shown, Humanized) VH: QVQLVQSGAEVKKPGASVKVSCKASGFNIKDTYIHWVRQAPGQGLEWIGRIDPAIGTTRYDPKFQGRATITTDTSTSTVYLEFSSLRSEDTAVYYCARLHYFGNNFFFDYWGQGTLVTVSS VL: QAVVTQEPSLTVSPGGTVTLTCRSSSGAVTTSNYANWVQEKPGQLFAGLIGGTNDRAPGVPARFSGSLLGGKAALTISGAQPEDEAIYFCALWFSNHWVFGGGTKLTVL", "unit.info": "M⁻¹ s⁻¹", "kon": 446000}
{"binder": "144L249B LV7a HV11 (antibody, V domains shown, Humanized) VH: QVQLVQSGAEVKKPGASVKVSCKASGFNIKDTYIYWVRQAPGQGLEWIGRIDPAIGTTRYDPKFQGKATLTTDTSTNTAYLELSSLRSEDTAVYYCARYDYSGSSFYFDYWGQGTLVTVSS VL: QAVVTQEPSLTVSPGGTVTLTCRSSTGAVTTSNYANWVQQKPGQAFTGLIGGTNDRAPGVPARFSGSLLGGKAALTISGAQPEDEADYFCALWYSNHLVFGGGTKLTVL", "unit.info": "M⁻¹ s⁻¹", "kon": 913000}
{"binder": "144D464A LV9are HV10b (antibody, V domains shown, Humanized) VH: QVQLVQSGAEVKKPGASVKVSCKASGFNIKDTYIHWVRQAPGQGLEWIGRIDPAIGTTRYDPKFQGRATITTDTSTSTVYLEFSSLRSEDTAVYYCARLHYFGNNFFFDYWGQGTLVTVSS VL: QAVVTQEPSLTVSPGGTVTLTCRSSSGAVTTSNYANWVQEKPGQLFAGLIGGTNDRAPGVPARFSGSLLGGKAALTLSGAQPEDEADYFCALWFSNHWVFGGGTKLTVL", "unit.info": "M⁻¹ s⁻¹", "kon": 434000}
{"binder": "144D464A (antibody, V domains shown, Mouse monoclonal from hybridoma; mouse IgG heavy and lambda light chain; also called mouse antibody 144D464A) VH: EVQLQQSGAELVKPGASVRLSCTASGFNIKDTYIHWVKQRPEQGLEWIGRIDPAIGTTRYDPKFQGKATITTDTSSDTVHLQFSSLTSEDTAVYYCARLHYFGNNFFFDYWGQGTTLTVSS VL: QAVVTQESALTTSPGEAVTLTCRSSSGAVTTSNYANWVQEKPDHLFAGLIGGTNDRAPGVPARFSGSLIGDKAALTITGAQTEDEAIYFCALWFSNHWVFGGGTKLTVL", "unit.info": "M⁻¹ s⁻¹", "kon": 493000}
{"binder": "144L249B (antibody, V domains shown, Mouse monoclonal from hybridoma; mouse IgG heavy and lambda light chain; also called mouse antibody 144L249B) VH: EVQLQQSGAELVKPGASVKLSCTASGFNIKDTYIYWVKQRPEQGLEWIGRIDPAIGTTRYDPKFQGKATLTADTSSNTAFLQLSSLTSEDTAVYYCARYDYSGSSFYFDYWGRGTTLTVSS VL: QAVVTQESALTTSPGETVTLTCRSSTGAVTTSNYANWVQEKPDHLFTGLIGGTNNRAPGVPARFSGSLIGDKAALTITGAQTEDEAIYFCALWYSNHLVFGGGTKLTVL", "unit.info": "M⁻¹ s⁻¹", "kon": "1.13e+06"}

Let us move to another entry and its kon.
Which kon is listed for 144D464A LV7a HV10b (antibody, V domains shown, Humanized; also called humanized 144D464A antibody LV7a HV10b) VH: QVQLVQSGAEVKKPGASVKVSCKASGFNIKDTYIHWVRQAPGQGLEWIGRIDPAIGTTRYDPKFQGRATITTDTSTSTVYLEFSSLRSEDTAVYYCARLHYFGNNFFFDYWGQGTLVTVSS VL: QAVVTQEPSLTVSPGGTVTLTCRSSSGAVTTSNYANWVQQKPGQAFAGLIGGTNDRAPGVPARFSGSLLGGKAALTISGAQPEDEADYFCALWFSNHWVFGGGTKLTVL ? 443000
